Listed next: entries and their corresponding Kd.
# Target: T1, soluble human BLyS (human, UniProt Q9Y275 134-285)
# T1 construct: also called hBLyS; human BAFF (BLyS)
# Assay: Biacore, antibody captured on chip, BLyS injected, 1:1 model, 25 C
The answer is to be given in nM; state only the numeric part.

Binder	Kd [nM]
6C10 IgG expressed in HEK293 cells (antibody, V domains shown, IgG from HEK293-FreeStyle cells; also called 6C10 (293)) VH: EVQLVQSGAEVKKPGASVKVSCKASGYTFTSYGISWVRQAPGQGLEWMGWISAYNGNTNYAQKLQGRVTMTTDTSTSTAYMELRSLRSDDTAVYYCARTYYDILTGYYYYYGMDVWGQGTTVTVSS VL: EIVLTQSPGTLSLSPGERAMLSCRASQSVGNYLAWYQQKPGQAPRLLIYDASNRATGIPARFSGSGSGTDFTLTINSLEPEDFAVYYCQQRSNWPLTFGGGTKVEIKR	0.434
6C10 IgG1 F243A/V264A double mutein expressed in Pichia pastoris (antibody, V domains shown, IgG1 F243A/V264A (EU) double mutein, alpha-2,6-sialylated, from glycoengineered Pichia pastoris; also called 6C10-DM; 6C10-DM (Pichia)) VH: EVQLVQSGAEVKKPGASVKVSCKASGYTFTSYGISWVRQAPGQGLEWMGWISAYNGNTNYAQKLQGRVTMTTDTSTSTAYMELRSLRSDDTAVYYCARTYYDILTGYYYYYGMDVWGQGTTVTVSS VL: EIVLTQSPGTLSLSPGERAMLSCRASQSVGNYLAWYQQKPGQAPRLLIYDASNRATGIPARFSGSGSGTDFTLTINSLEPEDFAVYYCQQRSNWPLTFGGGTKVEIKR	0.421

# ---- query binder ----
Prompt: Any idea what Kd was measured for 5B7 IgG expressed in HEK293 cells (antibody, V domains shown, also called 5B7 (293); 5B7-HEK293) VH: QVQLVQSGAEVKKPGASVKVSCKASGGTFSSYAISWVRQAPGQGLEWMGGIIPIFGTANYAQKFQGRVTITADKSTSTAYMELSSLRSEDTAVYYCARVDYDILTGYYMGYFDYWGQGTLVTVSS VL: DIVMTQSPATLSLSPGERATLSCRASQSVSSYLAWYQQKPGQAPRLLIYDASNRATGIPARFSGSGSGTDFTLTISSLEPEDFAVYYCQQRSNWPITFGQGTRLEIKR ?
Completion: 0.224
